Test: viability loss with induced miR-34 in A549 – imaging, A549 dox-inducible miR-34, nuclei and caspase counts, primary screen (AID 1347080); also: test concentration not given here
Conditions: A549 miR-34 inducible, Hoechst nuclei count, 48 h; measured here: total cells with miR-34 induction; stronger effect = lower value
The entries below are paired with their reported cell count.

Cc1ccc(C2OC(CO)C(O)C(O)C2O)cc1Cc1ccc(-c2ccc(F)cc2)s1 (configuration not stated)	9160
CC(C)CN(CC(O)C(Cc1ccccc1)NC(=O)OC1CCOC1)S(=O)(=O)c1ccc(N)cc1 (configuration not stated)	7780
CCC(C)(C)C(=O)OC1CC(C)C=C2C=CC(C)C(CC[C@@H]3CC(O)CC(=O)O3)[C@H]21 (some centres not stated)	2960

Inquiry: Report measured cell count; entry is `CCCCC[C@H](O)/C=C/[C@@H]1[C@H]2C/C(=C/CCCC(=O)O)C[C@H]2C[C@H]1O`
Reply text: 5920

Inquiry: Report measured cell count; entry is `N[C@@H](Cc1cnc[nH]1)C(=O)O`
Reply text: 9970

Values compiled from PubChem BioAssay.
